// pIC50 lookup, one value per entry
Biological target: recombinant human ALDH-1 (Homo sapiens, UniProt P00352)
Sequence (P00352 1-501): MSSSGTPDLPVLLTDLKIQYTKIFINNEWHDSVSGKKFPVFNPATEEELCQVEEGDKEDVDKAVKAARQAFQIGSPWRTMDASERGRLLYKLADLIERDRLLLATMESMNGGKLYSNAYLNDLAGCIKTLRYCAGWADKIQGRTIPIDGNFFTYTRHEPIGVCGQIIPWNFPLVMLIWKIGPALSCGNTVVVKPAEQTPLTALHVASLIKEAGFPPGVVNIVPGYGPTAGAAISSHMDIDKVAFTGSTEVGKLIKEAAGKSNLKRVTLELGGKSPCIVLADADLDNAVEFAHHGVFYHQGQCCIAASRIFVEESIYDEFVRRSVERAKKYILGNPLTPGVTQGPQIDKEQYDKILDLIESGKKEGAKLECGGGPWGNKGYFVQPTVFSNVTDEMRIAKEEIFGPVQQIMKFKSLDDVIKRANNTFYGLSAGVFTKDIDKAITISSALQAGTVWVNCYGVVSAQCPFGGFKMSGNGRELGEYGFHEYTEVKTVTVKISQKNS
Test: ALDH-1 inhibition assay
Details: 60 min pre-incubation; 10 μM = highest concentration tested; read-out: Enzymatic Assays IC50 ALDH-1
pIC50: −log10 of the molar value.

Below, 4 compounds whose answers are already recorded.
Cc1cccc(Cl)c1C(=O)NCc1cnc(-c2cccc(=O)[nH]2)nc1 [(1n)] | < 5.00
O=C(NCc1ccc(-c2[nH]c(=O)ccc2F)nc1)c1c(Cl)cccc1Cl [(1i)] | < 5.00
O=C(NCc1ccc(-c2cccc(=O)[nH]2)nc1)c1ccccc1Cl [(1l)] | < 5.00
O=C(NCc1ccc(-c2cccc(=O)[nH]2)cc1)c1ccccc1Cl [(1b)] | < 5.00

[ask] Look up pIC50: Cc1cccc(Cl)c1C(=O)NCc1ccc(-c2[nH]c(=O)ccc2F)cc1 [Compound (1e)]
[reply] < 5.00

[ask] Next record, please: O=C(NCc1ccc(-c2[nH]c(=O)ccc2F)cc1)c1ccccc1Cl [Compound (1f)]
[reply] < 5.00

[ask] Next record, please: O=C(NCc1ccc(-c2[nH]c(=O)ccc2F)cc1)c1c(Cl)cccc1Cl [Compound (1d)]
[reply] < 5.00

[ask] Quick one: Cc1nccc(Cl)c1C(=O)NCc1ccc(-c2cccc(=O)[nH]2)nc1 [(1m)]
[reply] < 5.00

[ask] Quick one: Cc1cccc(Cl)c1C(=O)NCc1ccc(-c2cccc(=O)[nH]2)nc1 [(1k)]
[reply] < 5.00

====

test system: HepaRG spheroids; assay: HepaRG 3D spheroid assay; format: cell-based; conditions: minimum effective concentration crossing vehicle control threshold of cell health marker; 100 μM = highest concentration tested
Criterion: HepaRG 3D Spheroid MEC strictly less than 50 µM. Met: MET. Not met: NOT MET.

O=C(NCc1ccc(-c2cccc(=O)[nH]2)nc1)c1ccccc1Cl | MET
O=C(NCc1ccc(-c2[nH]c(=O)ccc2F)nc1)c1c(Cl)cccc1Cl | MET
Cc1nccc(Cl)c1C(=O)NCc1ccc(-c2[nH]c(=O)ccc2F)cc1 | NOT MET
Cc1nccc(Br)c1C(=O)NCc1ccc(-c2[nH]c(=O)ccc2F)cc1 | MET

Okay, next one:
[ask] Does the reported HepaRG 3D Spheroid MEC of the following compound sit strictly below 50 µM? Cc1nccc(Cl)c1C(=O)NCc1ccc(-c2cccc(=O)[nH]2)cc1
[reply] MET
